Each recorded value in this set is attributed to the METLIN SMRT retention time set (Domingo-Almenara et al. 2019).

# Test Details: gradient 5% acetonitrile 3 min, to 50% in 2 min, to 85% in 15 min, held 3 min, 100 µL/min
# Condition Description: column: Zorbax Extend-C18 2.1 x 50 mm; eluents: water / acetonitrile, 0.1% formic acid

{"columns": ["Compound", "RP-LC retention time"],
 "data": [
  ["CC(C)n1c(N2CCN(C(=O)c3ccc4c(c3)OCO4)CC2)cc(=O)n(C(C)C)c1=O", "823 s"],
  ["CC1CCC(NC(=O)C2CCCN(C(=O)c3cc(-c4ccccn4)n[nH]3)C2)CC1 (stereo not drawn)", "636 s"],
  ["CC1(C)CC(O)CC(C)(C)N1CC(O)COCCOc1ccc(F)cc1 (stereo not drawn)", "565 s"],
  ["Cc1ccc(-c2nnc(C)c(NCCN3CCOCC3)n2)cc1", "547 s"],
  ["COCC1(O)CCOC2(CCN(C(=O)c3cccs3)CC2)C1 (stereo not drawn)", "621 s"],
  ["Cc1ccccc1NS(=O)(=O)c1cc2n(c1)CCCN(C)C2=O", "666 s"],
  ["O=C(NCCN1CCc2ccccc2C1)c1cn2nc(Cl)ccc2n1", "618 s"],
  ["Cc1nn(C)c(C)c1S(=O)(=O)NCCc1noc(-c2cccnc2)n1", "643 s"]
]}

* * *

# Test Details: gradient 5% acetonitrile 3 min, to 50% in 2 min, to 85% in 15 min, held 3 min, 100 µL/min
# Condition Description: column: Zorbax Extend-C18 2.1 x 50 mm; eluents: water / acetonitrile, 0.1% formic acid

{"columns": ["Compound", "RP-LC retention time, s"],
 "data": [
  ["COCCN1CC(CO)C2(CCN(Cc3ccc(F)c(Cl)c3)CC2)C1 (stereo not given)", 550],
  ["Cc1ccc(C)c(Cn2nc3ccc(S(=O)(=O)N4CCCCCC4)cn3c2=O)c1", 1090],
  ["COc1ccc(OC)c(NC(=O)c2nc(N(C)C)c3c(C)cc(C)nc3n2)c1", 676],
  ["CCCn1ncc(N2CCC(C(=O)NCc3cccc(F)c3)CC2)cc1=O", 706],
  ["CCCn1c(-c2cccc(C(=O)NCc3cccc(Br)c3)c2)nc2cccnc21", 894],
  ["Cc1ccc(NC(=O)C2CC(=O)N(c3n[nH]c4ccccc34)C2)nc1 (stereo not given)", 594],
  ["O=C(NCCc1csc(-c2cccs2)n1)C1CCN(C(=O)c2ccc(F)c(F)c2)CC1", 809],
  ["COc1cc(CC(=O)N2CCN(c3cc(C)n4c(C)nnc4n3)CC2)cc(OC)c1", 576],
  ["Cc1ccn2cc(-c3ccc(NC(=O)c4ccco4)cc3)nc2n1", 596],
  ["Cc1nn(-c2ccccc2)c(C)c1S(=O)(=O)N1CCC(C(=O)N2CCN(C)CC2)CC1", 631],
  ["CCCNC(=O)c1ccc2c(c1)N(C)C(=O)CS2", 843],
  ["O=C(Nc1nnc(SCc2ccccc2F)s1)c1ccccc1C(F)(F)F", 944],
  ["CCOc1ccccc1NC(=O)N(C)CCc1noc(COc2ccccc2)n1", 977],
  ["COc1cccc(C(O)CN2CCN(c3cccc(C)c3)CC2)c1 (stereo not given)", 663],
  ["COc1ccc(N2C(=O)CCC(C(=O)NCCCN3CCN(C)CC3)C2c2ccc(F)cc2)cc1 (stereo not given)", 526]
]}
